# Test system: DPX2 cells
# stated.conditions: human
As shown below, each of these compounds has a reported DPX2 Viability @ 25 μM value.
measured.property: DPX2 Viability @ 25 μM (%)

• CCC(=O)N1CCN(c2cc(C)c3nc4c5c6c7c(C)c(O)c5c(=O)c(c-4oc3c2)NC(=O)/C(C)=C\C=C\[C@H](C)[C@H](O)[C@@H](C)[C@@H](O)[C@@H](C)[C@H](OC(C)=O)[C@H](C)[C@@H](OC)/C=C/O[C@@](C)(O7)C6=O)CC1 [Compound 26e] = 97
• CO[C@H]1/C=C/O[C@@]2(C)Oc3c(C)c(O)c4c(=O)c(c5oc6cccc(OCc7ccc(CN8CCOCC8)cc7)c6nc-5c4c3C2=O)NC(=O)/C(C)=C\C=C\[C@H](C)[C@H](O)[C@@H](C)[C@@H](O)[C@@H](C)[C@H](OC(C)=O)[C@@H]1C [Compound 16d] = 59
• CO[C@H]1/C=C/O[C@@]2(C)Oc3c(C)c(O)c4c(=O)c(c5oc6cc(N7CCN(C(=O)c8cccc(-n9ccnc9)c8)CC7)cc(C)c6nc-5c4c3C2=O)NC(=O)/C(C)=C\C=C\[C@H](C)[C@H](O)[C@@H](C)[C@@H](O)[C@@H](C)[C@H](OC(C)=O)[C@@H]1C [Compound 29a] = 149
• CO[C@H]1/C=C/O[C@@]2(C)Oc3c(C)c(O)c4c(=O)c(c5oc6cccc(OCc7ccc(CN8CCN(C(=O)CN9CCOCC9)CC8)cc7)c6nc-5c4c3C2=O)NC(=O)/C(C)=C\C=C\[C@H](C)[C@H](O)[C@@H](C)[C@@H](O)[C@@H](C)[C@H](OC(C)=O)[C@@H]1C [Compound 16c] = 55

* * *

# Tested on: DPX2 cells
# stated.conditions: 6.25 μM, 24 h
As shown below, each of these compounds has a reported DPX2 Viability @ 6.25 μM value.
measured.property: DPX2 Viability @ 6.25 μM (%)

* CO[C@H]1/C=C/O[C@@]2(C)Oc3c(C)c(O)c4c(=O)c(c5oc6cc(N7CCCC(C(=O)Nc8ccc(Cl)cc8)C7)cc(C)c6nc-5c4c3C2=O)NC(=O)/C(C)=C\C=C\[C@H](C)[C@H](O)[C@@H](C)[C@@H](O)[C@@H](C)[C@H](OC(C)=O)[C@@H]1C (some centres unmarked) [Compound 28] | 110
* CO[C@H]1/C=C/O[C@@]2(C)Oc3c(C)c(O)c4c(=O)c(c5oc6cccc(OCCCCN7CCNCC7)c6nc-5c4c3C2=O)NC(=O)/C(C)=C\C=C\[C@H](C)[C@H](O)[C@@H](C)[C@@H](O)[C@@H](C)[C@H](OC(C)=O)[C@@H]1C [Compound 5d] | 102

* * *

As shown below, each of these compounds has a reported DPX2 Viability @ 6.25 μM value.
# Test system: DPX2 cells
# stated.conditions: 6.25 μM, 24 h
measured.property: DPX2 Viability @ 6.25 μM (%)

- CO[C@H]1/C=C/O[C@@]2(C)Oc3c(C)c(O)c4c(=O)c(c5oc6cc(N7CCN(C(C)=O)CC7)cc(C)c6nc-5c4c3C2=O)NC(=O)/C(C)=C\C=C\[C@H](C)[C@H](O)[C@@H](C)[C@@H](O)[C@@H](C)[C@H](OC(C)=O)[C@@H]1C [Compound 26d]: 106
- CO[C@H]1/C=C/O[C@@]2(C)Oc3c(C)c(O)c4c(=O)c(c5oc6cc(N7CCN(C(=O)C(C)(C)C)CC7)cc(C)c6nc-5c4c3C2=O)NC(=O)/C(C)=C\C=C\[C@H](C)[C@H](O)[C@@H](C)[C@@H](O)[C@@H](C)[C@H](OC(C)=O)[C@@H]1C [Compound 26f]: 111
- CO[C@H]1/C=C/O[C@@]2(C)Oc3c(C)c(O)c4c(=O)c(c5oc6cc(N7CCN(C(=O)OC(C)(C)C)CC7)cc(C)c6nc-5c4c3C2=O)NC(=O)/C(C)=C\C=C\[C@H](C)[C@H](O)[C@@H](C)[C@@H](O)[C@@H](C)[C@H](OC(C)=O)[C@@H]1C [Compound 26i]: 120
- CO[C@H]1/C=C/O[C@@]2(C)Oc3c(C)c(O)c4c(=O)c(c5oc6cccc(OCCCCN7CCN(C)CC7)c6nc-5c4c3C2=O)NC(=O)/C(C)=C\C=C\[C@H](C)[C@H](O)[C@@H](C)[C@@H](O)[C@@H](C)[C@H](OC(C)=O)[C@@H]1C: 87
- CO[C@H]1/C=C/O[C@@]2(C)Oc3c(C)c(O)c4c(=O)c(c5oc6cc(N7CCN(C(=O)c8cccc(-c9ccccn9)c8)CC7)cc(C)c6nc-5c4c3C2=O)NC(=O)/C(C)=C\C=C\[C@H](C)[C@H](O)[C@@H](C)[C@@H](O)[C@@H](C)[C@H](OC(C)=O)[C@@H]1C [Compound 29b]: 136

* * *

# assayed.system: E. coli S531L (RIF^R) RNAP (Escherichia coli, UniProt P0A8V2, S531L)
# assay.text: biochemical
As shown below, each of these compounds has a reported IC50 value.
measured.property: IC50 (µM)

- CO[C@H]1/C=C/O[C@@]2(C)Oc3c(C)c(O)c4c(=O)c(c5oc6cccc(OCCCCN7CCOCC7)c6nc-5c4c3C2=O)NC(=O)/C(C)=C\C=C\[C@H](C)[C@H](O)[C@@H](C)[C@@H](O)[C@@H](C)[C@H](OC(C)=O)[C@@H]1C [Compound 5b]: 390
- CO[C@H]1/C=C/O[C@@]2(C)Oc3c(C)c(O)c4c(=O)c(c5oc6cccc(OCc7ccc(CN8CCN(C(=O)CN9CCOCC9)CC8)cc7)c6nc-5c4c3C2=O)NC(=O)/C(C)=C\C=C\[C@H](C)[C@H](O)[C@@H](C)[C@@H](O)[C@@H](C)[C@H](OC(C)=O)[C@@H]1C [Compound 16c]: 92
- CO[C@H]1/C=C/O[C@@]2(C)Oc3c(C)c(O)c4c(=O)c(c5oc6cccc(OCCCCN7CCNCC7)c6nc-5c4c3C2=O)NC(=O)/C(C)=C\C=C\[C@H](C)[C@H](O)[C@@H](C)[C@@H](O)[C@@H](C)[C@H](OC(C)=O)[C@@H]1C [Compound 5d]: 440
- CO[C@H]1/C=C/O[C@@]2(C)Oc3c(C)c(O)c4c(=O)c(c5oc6cc(C)cc(N7CCN(CC(C)C)CC7)c6nc-5c4c3C2=O)NC(=O)/C(C)=C\C=C\[C@H](C)[C@H](O)[C@@H](C)[C@@H](O)[C@@H](C)[C@H](OC(C)=O)[C@@H]1C [Compound 30c]: 130
- CO[C@H]1/C=C/O[C@@]2(C)Oc3c(C)c(O)c4c(=O)c(c5oc6cc(N7CCN(CC(C)C)CC7)cc(OCCCCN7CCN(C(=O)Cn8ccnc8)CC7)c6nc-5c4c3C2=O)NC(=O)/C(C)=C\C=C\[C@H](C)[C@H](O)[C@@H](C)[C@@H](O)[C@@H](C)[C@H](OC(C)=O)[C@@H]1C [Compound 6d]: 93
- CO[C@H]1/C=C/O[C@@]2(C)Oc3c(C)c(O)c4c(=O)c(c5oc6cc(N7CCN(CC(C)C)CC7)cc(OCc7ccc(CN8CCN(C(=O)CN9CCOCC9)CC8)cc7)c6nc-5c4c3C2=O)NC(=O)/C(C)=C\C=C\[C@H](C)[C@H](O)[C@@H](C)[C@@H](O)[C@@H](C)[C@H](OC(C)=O)[C@@H]1C [Compound 17d]: 32
- CO[C@H]1/C=C/O[C@@]2(C)Oc3c(C)c(O)c4c(=O)c(c5oc6cc(N7CCN(CC(C)C)CC7)cc(OCc7ccc(CN8CCN(C(=O)Cn9ccnc9)CC8)cc7)c6nc-5c4c3C2=O)NC(=O)/C(C)=C\C=C\[C@H](C)[C@H](O)[C@@H](C)[C@@H](O)[C@@H](C)[C@H](OC(C)=O)[C@@H]1C [Compound 17c]: 100

* * *

# assayed.system: E. coli S531L (RIF^R) RNAP (Escherichia coli, UniProt P0A8V2, S531L)
# assay.text: biochemical
As shown below, each of these compounds has a reported IC50 value.
measured.property: IC50 (µM)

• CO[C@H]1/C=C/O[C@@]2(C)Oc3c(C)c(O)c4c(=O)c(c5oc6cc(N7CCN(CC(C)C)CC7)cc(OCc7cccc(CN8CCN(C(=O)Cn9ccnc9)CC8)c7)c6nc-5c4c3C2=O)NC(=O)/C(C)=C\C=C\[C@H](C)[C@H](O)[C@@H](C)[C@@H](O)[C@@H](C)[C@H](OC(C)=O)[C@@H]1C [Compound 12c] = 66
• CO[C@H]1/C=C/O[C@@]2(C)Oc3c(C)c(O)c4c(=O)c(c5oc6cccc(OCc7ccc(CN8CCN(C(=O)Cn9ccnc9)CC8)cc7)c6nc-5c4c3C2=O)NC(=O)/C(C)=C\C=C\[C@H](C)[C@H](O)[C@@H](C)[C@@H](O)[C@@H](C)[C@H](OC(C)=O)[C@@H]1C [Compound 16b] = 160
• CO[C@H]1/C=C/O[C@@]2(C)Oc3c(C)c(O)c4c(=O)c(c5oc6cccc(OCc7cccc(CN8CCN(C(=O)Cc9ccccc9)CC8)c7)c6nc-5c4c3C2=O)NC(=O)/C(C)=C\C=C\[C@H](C)[C@H](O)[C@@H](C)[C@@H](O)[C@@H](C)[C@H](OC(C)=O)[C@@H]1C [Compound 11g] = 28
